Entries with their measured IC50, system Cholinesterase (Equus caballus, UniProt P81908):

compound | qual | IC50 (µM)
COc1ccc(C2c3c(nc4c(c3N)CCCC4)Oc3c2c(=O)oc2ccccc32)cc1 (stereo not given) | = | 0.84
Nc1c2c(nc3c1C(c1cccc(Cl)c1)c1c(c4ccccc4oc1=O)O3)CCCC2 (stereo not given) | > | 30
Nc1c2c(nc3c1C(c1cccc(F)c1)c1c(c4ccccc4oc1=O)O3)CCCC2 (stereo not given) | = | 0.89
Nc1c2c(nc3c1C(c1ccc(Cl)cc1)c1c(c4ccccc4oc1=O)O3)CCCC2 (stereo not given) | > | 30
Nc1c2c(nc3c1C(c1ccncc1)c1c(c4ccccc4oc1=O)O3)CCCC2 (stereo not given) | > | 30
COc1ccc(C2c3c(nc4c(c3N)CCCC4)Oc3c2c(=O)oc2ccccc32)cc1OC (stereo not given) | = | 2.1
Cc1ccc(C2c3c(nc4c(c3N)CCCC4)Oc3c2c(=O)oc2ccccc32)cc1 (stereo not given) | > | 30
Nc1c2c(nc3c1C(c1ccc(F)cc1)c1c(c4ccccc4oc1=O)O3)CCCC2 (stereo not given) | = | 15.7
CCC1c2c(nc3c(c2N)CCCC3)Oc2c1c(=O)oc1ccccc21 (stereo not given) | = | 5.6
Nc1c2c(nc3c1C(c1ccccc1Cl)c1c(c4ccccc4oc1=O)O3)CCCC2 (stereo not given) | = | 4.9

====

Entries with their measured IC50, system UniProt:O42275:
assay_metric: IC50 (nM)

molecule | unit_text | observed
CCC1c2c(nc3c(c2N)CCCC3)Oc2c1c(=O)oc1ccccc21 (stereo not drawn) | nM | 266
Nc1c2c(nc3c1C(c1cccc(Cl)c1)c1c(c4ccccc4oc1=O)O3)CCCC2 (stereo not drawn) | nM | 288
Nc1c2c(nc3c1C(c1ccccc1)c1c(c4ccccc4oc1=O)O3)CCCC2 (stereo not drawn) | nM | 24
Nc1c2c(nc3c1C(c1cccc(F)c1)c1c(c4ccccc4oc1=O)O3)CCCC2 (stereo not drawn) | nM | 67
Nc1c2c(nc3c1C(c1ccccc1Cl)c1c(c4ccccc4oc1=O)O3)CCCC2 (stereo not drawn) | nM | 35
Nc1c2c(nc3c1C(c1cccs1)c1c(c4ccccc4oc1=O)O3)CCCC2 (stereo not drawn) | nM | 84
COc1cc(C2c3c(nc4c(c3N)CCCC4)Oc3c2c(=O)oc2ccccc32)cc(OC)c1OC (stereo not drawn) | nM | 69
Nc1c2c(nc3c1C(c1ccc(Cl)cc1Cl)c1c(c4ccccc4oc1=O)O3)CCCC2 (stereo not drawn) | nM | 50
CCCCC1c2c(nc3c(c2N)CCCC3)Oc2c1c(=O)oc1ccccc21 (stereo not drawn) | nM | 57
Cc1ccc(C2c3c(nc4c(c3N)CCCC4)Oc3c2c(=O)oc2ccccc32)cc1 (stereo not drawn) | nM | 14
COc1ccc(C2c3c(nc4c(c3N)CCCC4)Oc3c2c(=O)oc2ccccc32)cc1 (stereo not drawn) | nM | 16
CC1c2c(nc3c(c2N)CCCC3)Oc2c1c(=O)oc1ccccc21 (stereo not drawn) | nM | 432
COc1ccc(C2c3c(nc4c(c3N)CCCC4)Oc3c2c(=O)oc2ccccc32)cc1OC (stereo not drawn) | nM | 43
Nc1c2c(nc3c1C(c1cccc([N+](=O)[O-])c1)c1c(c4ccccc4oc1=O)O3)CCCC2 (stereo not drawn) | nM | 141
Nc1c2c(nc3c1C(c1ccc(F)cc1)c1c(c4ccccc4oc1=O)O3)CCCC2 (stereo not drawn) | nM | 5
Nc1c2c(nc3c1C(c1ccc4c(c1)OCO4)c1c(c4ccccc4oc1=O)O3)CCCC2 (stereo not drawn) | nM | 13
Nc1c2c(nc3c1C(c1ccncc1)c1c(c4ccccc4oc1=O)O3)CCCC2 (stereo not drawn) | nM | 53
Nc1c2c(nc3c1C(c1ccc(Cl)cc1)c1c(c4ccccc4oc1=O)O3)CCCC2 (stereo not drawn) | nM | 93

====

Entries with their measured IC50, system UniProt P81908:

molecule | tested_system | IC50
Nc1c2c(nc3c1C(c1ccc(Cl)cc1Cl)c1c(c4ccccc4oc1=O)O3)CCCC2 (stereo not drawn) | UniProt P81908 | > 30 µM
Nc1c2c(nc3c1C(c1ccc4c(c1)OCO4)c1c(c4ccccc4oc1=O)O3)CCCC2 (stereo not drawn) | UniProt P81908 | 0.57 µM
CC1c2c(nc3c(c2N)CCCC3)Oc2c1c(=O)oc1ccccc21 (stereo not drawn) | UniProt P81908 | 1.22 µM

====

Target: Cholinesterase (Equus caballus, UniProt P81908)
Sequence (P81908 whole entry): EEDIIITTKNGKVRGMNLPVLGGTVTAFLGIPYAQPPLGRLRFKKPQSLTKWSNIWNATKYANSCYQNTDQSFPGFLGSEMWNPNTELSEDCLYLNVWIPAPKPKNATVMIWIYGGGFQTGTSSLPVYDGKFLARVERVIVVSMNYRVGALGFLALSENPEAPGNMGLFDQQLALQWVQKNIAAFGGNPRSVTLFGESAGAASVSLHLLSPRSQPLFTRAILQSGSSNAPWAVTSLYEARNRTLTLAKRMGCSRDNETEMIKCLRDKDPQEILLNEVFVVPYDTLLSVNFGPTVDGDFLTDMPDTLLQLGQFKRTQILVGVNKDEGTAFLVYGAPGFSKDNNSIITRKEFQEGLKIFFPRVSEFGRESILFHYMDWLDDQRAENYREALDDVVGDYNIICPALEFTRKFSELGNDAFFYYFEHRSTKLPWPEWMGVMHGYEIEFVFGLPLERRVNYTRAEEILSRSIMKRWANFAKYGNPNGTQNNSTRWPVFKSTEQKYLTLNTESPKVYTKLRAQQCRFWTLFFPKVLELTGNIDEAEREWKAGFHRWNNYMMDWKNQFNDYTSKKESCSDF
pIC50: −log10 of the molar value.
We use 5 as the dividing line for pIC50: on or above the line is Fulfilled, below is Not fulfilled.

molecule | group
Nc1c2c(nc3c1C(c1ccccc1)c1c(c4ccccc4oc1=O)O3)CCCC2 (stereo not given) | Fulfilled
CCCCC1c2c(nc3c(c2N)CCCC3)Oc2c1c(=O)oc1ccccc21 (stereo not given) | Not fulfilled
Nc1c2c(nc3c1C(c1cccs1)c1c(c4ccccc4oc1=O)O3)CCCC2 (stereo not given) | Fulfilled
COc1cc(C2c3c(nc4c(c3N)CCCC4)Oc3c2c(=O)oc2ccccc32)cc(OC)c1OC (stereo not given) | Fulfilled
Nc1c2c(nc3c1C(c1cccc([N+](=O)[O-])c1)c1c(c4ccccc4oc1=O)O3)CCCC2 (stereo not given) | Not fulfilled

Where do these numbers come from? They come from ChEMBL document CHEMBL2424599.
